The measurements presented in this section are drawn from the domain aggregation screens of Martell et al. (2025).

assay: soluble fraction after stress (log2 fold change); higher = more stays soluble; pooled small domains, quantitative proteomics; conditions: stress: 50 degC
Collected soluble fraction (log2) values appear next to each entry.
Number only, please.

- CONSTRUCT SEQUENCE: "HMPKRYAGPDIIAIYGSDVFFRVGSGDGLMVIPVGRSMDNIEVVSVDAPRSVELMWKDGGPFTVPV"
  soluble fraction (log2): -0.165
- CONSTRUCT SEQUENCE: "HMGETAFRYALPLDQGEALKRSHVIRQSISPDDALATRVTVLEDVLDQTLRQPVQAGEVLLEDHFTR"
  soluble fraction (log2): -0.00712
- CONSTRUCT SEQUENCE: "HMVKEVKVPDVEGLTTEEAIKELKKYGLAYTTKSEENTDIEEGKVIRTEPKKGSTKVKGSTVTIIESSG"
  soluble fraction (log2): -0.169

Noted for `HMNKYNNIEDLKEEDFENISEKYQVPVSFVKSKLDDLINWHEKNPQKNHYKNYLSALRDWVKRDSLKIKL` : its soluble fraction (log2) reads 0.0328

Sample `HMLGDAWSMLILRDAHSGFSRFDQFRKSLGIAPTMLTKRLSVLVDEGLLEKRQYSEHPPREEYVLTQAGQD` ; soluble fraction (log2) observed: 0.0822

# soluble fraction (log2) of `HMGAQRDFELQLIDVIRQNPGLTYKAYGEKLSVSQATVKRLVAKLKETGSIRREGSQRKGTWIITDD` = -0.867

* * *

test: soluble fraction after stress (log2 fold change); higher = more stays soluble; pooled small domains, quantitative proteomics; conditions: stress: 50 degC
METRIC: soluble fraction (log2)
Please give only the number in your answer, with no unit.

- CONSTRUCT SEQUENCE: "HMERLKKYLDDVRTFLPGTNPKKVDEILREIESHVLERAEREHGEVNDNAVAMSIKEYGSPEEVAARYYEG"
  REPORTED MEASUREMENT: 0.194
- CONSTRUCT SEQUENCE: "HMSNPPIRIGKKALHELLTTWLSLLSRDGVAYLVVQKNLGADSLTAWLRDQGFPSEKIASKKGFRIIEVH"
  REPORTED MEASUREMENT: -0.245
- CONSTRUCT SEQUENCE: "HMNVDSLVGSEARVTAEIDNRKETGTAMVNGQEWTARAESDEEIYPVGTIVEIRKIQGVKLIVSTH"
  REPORTED MEASUREMENT: -0.162
- CONSTRUCT SEQUENCE: "HMNDLDSLWDIWENLNERGIGDKSEEGQELRDAIREFIDTNELNVRVTRNKTNEDLLTDIEDALEVAKNS"
  REPORTED MEASUREMENT: -0.33
- CONSTRUCT SEQUENCE: "HMKSTELSIIEALRVLGLKHGASQDSIKKSYRRLVKQHHPDLGGSADSFRKVNEAYQLLIMN"
  REPORTED MEASUREMENT: -0.425
- CONSTRUCT SEQUENCE: "HMSDAGAIEPTIKEILASNPKAVEEYLAGNIKNINALIGQSMKALHGKADPQTVRNLLAKLLDEM"
  REPORTED MEASUREMENT: -0.219

Value of soluble fraction (log2) reported for the sequence `HMAPAILTVQVKPDKIREIIGPGGKMIRMIQSETNTRVEVDDSGLVKIAAVSKEEGEAALKMVSDITME` is 0.134

Notebook: `HMVKLQATPSQRKTLDELYVQLKKLEPTAKEDLSLLRRLENSHLVSKQEAQGLISKAIGRVGALAVEQQP` , soluble fraction (log2) read as 0.0652

For `HMPEVAHTIDMEAVNKHWDELPEREQRILVMRFYGNLTQTEIGERLGISQMHVSRLLARALSHLKSRLLD` the sequence record lists soluble fraction (log2) as -3.37

GET /value?item= `HMQDLPPIHLSRGMTDYTLVRSRRRTLSMELKRDGTVVVHAPLRLGVEKIDAFVAAHEAWLARARTRQAER` &field=soluble fraction (log2) returns -2.41

Given item `HMKLPNSFGSIQKLSGNRRKPYRVVKTIGWDENGKQIRKTLGYYETRAKALQELALFNEKPYD` , the value recorded as its soluble fraction (log2) is -0.804

Query `HMGITDHIYQDLKKRLENGNYPAGTRFPSESTLADEFSVNKMTMNKIVSMLAEQGYLIRGNRGAGTRVAEN` yields soluble fraction (log2) of -0.0862

According to the records, this sequence `HMVGIAEAMKHIADEDYGDLSAIFKQIFSDTDGGRNFSDAIRTQMRSTDSSGLRKVLSTLIMSIEE` displays soluble fraction (log2) of -0.498

Recorded result, `HMDEIDYSKYSITTSNRIINIDGVQSKVELFDVSGRSIQSTMVTGKFSSRPLNAGFYIIHVDGYSVKVSV` , soluble fraction (log2): -0.889

* * *

assay: soluble fraction after stress (log2 fold change); higher = more stays soluble; pooled small domains, quantitative proteomics; conditions: stress: 50 degC
METRIC: soluble fraction (log2)
Number only, please.

- CONSTRUCT SEQUENCE: "HMRGSRIFSGDVSPLTLPANSPFFSGYTEFKPGDVYVERSATNIAMWEWKSQPGGYTWVKTADIA"
  REPORTED MEASUREMENT: -0.169
- CONSTRUCT SEQUENCE: "HMTTTSGLIKTIQTGRRKLGMDDETYRALLADVSGGKTSSKDLNAYQLKEVLRRMREAGFRS"
  REPORTED MEASUREMENT: 0.218
- CONSTRUCT SEQUENCE: "HMENTIPSVIGRTLSDGVFLLESYGYVKGNVSEEFSEMPIGVIIRQFPGAGSAAEAGTRVDLVVSKGEEIV"
  REPORTED MEASUREMENT: -0.0523
- CONSTRUCT SEQUENCE: "HMGQELRFVIQDHEAGIRLDHYLTQQVEGYSRSHLRKLMDQGLITVDGSYRKAGYRLNVGDVIHVVIPPTR"
  REPORTED MEASUREMENT: -0.443
- CONSTRUCT SEQUENCE: "HMQNELAEARSQLAERKNIDQAKLILMKKRNISEPEAYKLLRSHAMQTNRRVAEVAESIITAESLLG"
  REPORTED MEASUREMENT: 0.0394
- CONSTRUCT SEQUENCE: "HMSSRLEIEITSKIDDLSHTWRAVGAKQPKGNIKSSLLPSGVKVGETFRVEADFLLDGIEIVSVLPP"
  REPORTED MEASUREMENT: -1.44
- CONSTRUCT SEQUENCE: "HMTYTMVAYGSQGDAVRQLQSELNRHGYQLDEDGVFGKKTRAAVRDYQKKNSLRLDGIAGDETWGSLLA"
  REPORTED MEASUREMENT: 0.324
- CONSTRUCT SEQUENCE: "HMQLKKDTILSYIEEKLIDSYNSNKGFTTQEISVALNMQRTNVSAILNNLVKENKLVKTKGKPVRYFLSG"
  REPORTED MEASUREMENT: -0.708

Sure, the documented soluble fraction (log2) for `HMGETWYEILEISSDATTEEIRQAYFEQARQYHPDTNPGELAREWFYQVQEAYETLSDPDRRRQYDESIKG` is -0.402

Reported soluble fraction (log2) ( `HMKMHKIIKERRLALNFTQEQVAKYLGVTTPAVNKWEKGISYPDISLLPALARLLDTDLNTLLSF` ) = -2.1

The sequence `HMLELTVSDKMARLMAWRNRRRVNLSDQELHRIAAAPKQSPESILKMLPGFLQDSVPEIWAELTGGRP` showed soluble fraction (log2) equal to -0.192

What the record says about `HMEETLLLRESVRSALAMLAPTLRITLEMYVYRQLSPTEIALRSGVSISMVRRRLGYGLYKLRTQLIDA` : soluble fraction (log2) is -0.138

Recorded soluble fraction (log2) (sequence `HMKSSTEIIYSDFLREVSNGQISEVTIQGDFVRGLFLSGSSFQTYAPKDSNLINILRDKKVRIKVHPP` ): -0.134

Value of measured soluble fraction (log2) for the entry `HMDRIISTPMPGRVVKIPVTEGEPVAKGATVITISAMKMESEYKSPIDGIVKKIHVSEGDNINANQPLIEI` : -0.178

Entry `HMPRELKVRDVSHQHAGHAGWREGGETHFEVDMKADVFAGTSRVAAHRMVNKVLANELASRVHALQLNLS` ; soluble fraction (log2) = 0.0371

Short answer for `HMLRNDEAVMLGRRLLNKHLQAFSVQIKDISHQRIHDLLDELELESLDHLLDDIGLGNRSVFLVAQKLLQ` : soluble fraction (log2) was -1.39

Looking up `HMDERLAKLTPQERKILDLIAEGATNRQIGTELHLAEKTVKNYVSNMLMKLGMSRRTEAAVFAVKASIN` , I see its soluble fraction (log2) listed as -0.64

Please fill in: soluble fraction (log2) reported for `HMIMTTKVSGIMFDKFNPSAILNINGMDYLVRSGDIINGYKILSIGQETVTVQYGANVYKASVG` = -2.26

The sequence `HMKKAIYPGSFDPLTLGHIDIIKRASGIVDELVVGVLNNSAKNSLFSLDERVSMIEEMTKDLPNVSVTSFD` showed soluble fraction (log2) equal to 0.136

What the record says about `HMSDYYEVLGVTRQADAEEIKRAYRRKARQLHPDVAGPGHEEEFKEVTVAYEVLSDPEKRQAYDLGGQDAL` : soluble fraction (log2) is 0.179

`HMSPFYILDEVEAALDDTNLGRLLEIYEELRENSQLLVITHQKRTMEVGDALYGVTMRGDGVSAVISQRLR` yielded soluble fraction (log2) of 0.303

Looking up `HMIDLSELINKTGSAYTNLRPSGTAVIGDDRVDVVTEGTFVEKDRPVKVVAVEGQRVVVREVE` , I see its soluble fraction (log2) listed as 0.178

Value of measured soluble fraction (log2) for the entry `HMGHKKLTIELQDEIIVLPKELEKYNLTVSDDKTSLIYTYKSRGEKTGITDLLRDIKDAGLRLKDLITEQ` : 0.434

The sequence listed as `HMRDYKTALQEWVQRTPGQPIAYRLVDELGPDHARVFVMEVTVGGQSAGQGRGRTKKEAEQLAARAALEKL` has a reported soluble fraction (log2) of -0.0907

Reported soluble fraction (log2) ( `HMQELNDQQRLAILNEWNNRATNPPSLLELVRVAFPDAEGADGRSWHGKKVKEFLSTRQIKARAS` ) = 0.119

Consider `HMEMDITIQMRTLVEELNRASDAYYNGRGELMTDYEWDAKFDQLKQLESQSGVVLPDSPTHRV` . Its measured soluble fraction (log2) is -0.162

Short answer for `HMKFIPPSLEEARAYFVEKGSSEPEAEKFVNHFDSIGWKVGRARTPMKKWKSAANNWIANNREWNQ` : soluble fraction (log2) was -0.407

The sequence listed as `HMLPGWMETKFTANVSENTKNRTLEEHVLKMLNNKESAAEFIIFLHEKMMSVSGQVFQLDSR` has a reported soluble fraction (log2) of 0.149
